Biological target: T1, human IL-23 (IL-23-His-Biotin) (human, UniProt Q9NPF7 20-189; P29460 23-328, biotin label, site not stated)
T1 construct: Akesobio lot 20161209; His-tagged and biotinylated
T1 sequence (looked up) 1: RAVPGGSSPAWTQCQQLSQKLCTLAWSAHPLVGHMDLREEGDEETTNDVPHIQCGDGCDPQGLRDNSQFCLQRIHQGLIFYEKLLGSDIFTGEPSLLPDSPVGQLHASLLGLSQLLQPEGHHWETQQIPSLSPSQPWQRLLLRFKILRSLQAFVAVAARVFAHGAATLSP
T1 sequence (looked up) 2: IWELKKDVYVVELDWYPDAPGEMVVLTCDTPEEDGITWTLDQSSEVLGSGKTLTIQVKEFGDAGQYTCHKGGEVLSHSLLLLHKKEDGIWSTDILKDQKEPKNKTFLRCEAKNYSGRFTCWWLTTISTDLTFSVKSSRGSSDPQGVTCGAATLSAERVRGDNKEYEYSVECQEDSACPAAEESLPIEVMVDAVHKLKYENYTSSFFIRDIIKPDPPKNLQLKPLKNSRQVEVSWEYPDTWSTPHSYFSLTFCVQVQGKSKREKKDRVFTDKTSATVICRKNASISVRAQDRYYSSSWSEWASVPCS
Assay: FACS competition, IL-23-His-Biotin 2 µg/mL on 293T-IL-12Rβ1&IL-23R cells; antibody 0.37 µg/mL
Listing: MFI of selected binders
Only the number, expressed in MFI, is required.

binder	units text	endpoint value
H5L12 (antibody, human IgG1, kappa, V domains shown, human IgG1 / kappa constant regions; also called humanized antibody H5L12) VH: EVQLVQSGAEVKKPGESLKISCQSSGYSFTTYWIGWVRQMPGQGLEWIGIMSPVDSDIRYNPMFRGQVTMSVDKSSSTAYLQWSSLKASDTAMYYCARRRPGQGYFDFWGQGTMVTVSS VL: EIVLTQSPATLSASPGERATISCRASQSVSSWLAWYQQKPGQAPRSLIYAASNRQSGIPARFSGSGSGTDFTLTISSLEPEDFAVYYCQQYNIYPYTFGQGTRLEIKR	MFI	177
ustekinumab (antibody, V domains shown) VH: EVQLVQSGAEVKKPGESLKISCKGSGYSFTTYWLGWVRQMPGKGLDWIGIMSPVDSDIRYSPSFQGQVTMSVDKSITTAYLQWNSLKASDTAMYYCARRRPGQGYFDFWGQGTLVTVSS VL: DIQMTQSPSSLSASVGDRVTITCRASQGISSWLAWYQQKPEKAPKSLIYAASSLQSGVPSRFSGSGSGTDFTLTISSLQPEDFATYYCQQYNIYPYTFGQGTKLEIK	MFI	186

For the next question, use this binder.
Quick one: MFI of H5L14 (antibody, human IgG1, kappa, V domains shown, human IgG1 / kappa constant regions; also called humanized antibody H5L14) VH: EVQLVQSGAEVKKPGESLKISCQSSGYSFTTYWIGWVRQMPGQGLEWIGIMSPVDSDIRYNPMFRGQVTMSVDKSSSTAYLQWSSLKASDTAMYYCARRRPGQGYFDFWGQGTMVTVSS VL: EIVLTQSPATLSASPGERATISCRASQSVSSWLAWYQQKPGQAPRSLIYAASNLQSGIPARFSGSGSGTDFTLTISSLEPEDFAVYYCQQYNIYPFTFGQGTRLEIKR ?
179
